Assay: NCI Yeast Anticancer Drug Screen. Data for the rad50 strain (AID 155);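 also: 0% = growth of vehicle-only cultures of the same strain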
Settings: S. cerevisiae rad50 strain growth inhibition; at 50.0 µM; hits give high values
Experimental: Growth inhibition of yeast strains with defined genetic alterations is measured as a screen for potential anti-cancer activity. Selected strains with alterations in DNA damage repair or cell cycle control were exposed to compounds and growth inhibition was measured relative to vehicle treated controls. The strain used in this assay is rad50
This is part of a sample that, as a whole, favours compounds with a hit. Of some 79,000 tested, about 15% had one in any assay.
measurementLabel: growth inhibition (%)
Only the number, expressed in %, is required.

# molecule, unitsText, observedValue
records = [
    ("NC(=O)NC(Cc1ccccc1)(C(=O)O)c1ccccc1 (stereo unspecified)", "%", 6.55),
]

Please report growth inhibition for the following molecule: `O=C(O)c1ccccc1[N+](=O)[O-]` -4.1

Answer with the recorded growth inhibition for the molecule listed here: `Cc1nc(-c2ccccc2)cc2c1c(=O)oc1ccccc12` -14.7

Kindly indicate its recorded growth inhibition. Item: `O=C(O)/C=C/C(=O)Nc1ccccc1Cl` 10.4

Answer with the recorded growth inhibition of `CCCCSc1n[nH]c(=O)nc1N` only. -5.5

Please report growth inhibition for the following molecule: `COC(=O)c1c2c(cc3c1CC1(Cc4ccccc4C1)C3)CCC2` 1.15

Give me measured growth inhibition, please, for this molecule: `CSc1cccc(NC(=O)/C=C/C(=O)O)c1` -3.05

Please report the measured growth inhibition for `Clc1ccc2c(c1)[nH]c1c2nc2sccn21` -7.25

# return recorded growth inhibition for entry `O=C(Nc1ccc(F)c([N+](=O)[O-])c1)Nc1cc(C(F)(F)F)ccc1Cl` 9.4

Kindly indicate its recorded growth inhibition. Item: `C=CCNc1ccc(C)cc1` 16.5

Give me measured growth inhibition, please, for this molecule: `CC(=O)c1c(Cl)cc(Cl)c(Cl)c1Cc1c(Cl)c(Cl)cc(Cl)c1C(C)=O` 9.5

State, in one line, measured growth inhibition of `Nc1nnc(-c2ccccc2)s1` -11.8

Write down growth inhibition measured for item `Cc1ccc(N(C)c2cc(=O)n(C)c(=O)[nH]2)cc1C` 14.4

Note growth inhibition for the molecule shown: `CCOC(=O)CS(=O)(=O)CS(=O)(=O)CC(=O)OCC` 10

Give growth inhibition for the following molecule: `NC(N)=Nc1cccc2ccccc12` -1.45

Tell me measured growth inhibition for `O=C(O)c1ccc(CS(=O)(=O)c2ccccc2C(=O)O)cc1` please. 9

Annotate the molecule O=S(=O)(O)C(c1ccccc1)C(O)c1ccccc1 (stereo unspecified) with its measured growth inhibition. 0.95

Look up and state reported growth inhibition for CCOC(=O)C(OC(C)=O)(C(=O)OCC)C(O)c1cccnc1 (stereo unspecified) 15.1

Using known records, supply growth inhibition for `COC(=O)C1=C(O)/C(=C\c2ccccc2)NC1=O` 9.35

Read off the recorded growth inhibition for O=C(CNC(=O)C(CO)NC(=O)OCc1ccccc1)OCc1ccccc1 (stereo unspecified) 12.4

Hello, please tell me recorded growth inhibition for this one: `O=C(Nc1ccccc1)C(=O)Nc1ccccc1` 5.4

Determine from records and report growth inhibition for `O=C1C=C(Nc2ccccc2)c2ccc(S(=O)(=O)O)cc2C1=O` 0.4

---

assay: NCI Yeast Anticancer Drug Screen. Data for the rad50 strain (AID 155);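 also: 0% = growth of vehicle-only cultures of the same strain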; conditions: S. cerevisiae rad50 strain growth inhibition; at 50.0 µM; hits give high values
This is part of a sample that, as a whole, favours compounds with a hit. Of some 79,000 tested, about 15% had one in any assay.
Label rule, in plain words: growth inhibition of 10% and up is met, under 10% is not met.

Solved entries:
# molecule, labelClass
data = [
    ("COc1ccc(/C=C2\\CCC(Cc3ccccc3)(CN(C)C)C2=O)cc1 (stereo not given)", "met"),
    ("CSCCCNC(=O)c1csc(-c2csc(CCNC(=O)[C@@H](NSc3ccccc3[N+](=O)[O-])[C@@H](C)O)n2)n1", "not met"),
    ("CCOC(=O)C1C(c2ccccc2)ON(c2ccccc2)C1c1cccc([N+](=O)[O-])c1 (stereo not given)", "met"),
    ("COc1cc(-c2nnc3n2NC=C(C(=O)O)S3)cc(OC)c1OC", "not met"),
]

Attention now shifts to the item below.
Test whether the molecule CCOC(=O)N1N=C(c2ccccc2)OC2(N3CCCC3)CCC(C(C)(C)C)CC12 (stereo not given) records growth inhibition of 10% or higher. met

---

assay: NCI Yeast Anticancer Drug Screen. Data for the bub3 strain (AID 167); conditions: S. cerevisiae bub3 mutant strain, at 50.0 µM, hits give high values
Compounds without any hit were thinned out: in the full panel of roughly 79,000, 15% have a hit.
Each record here notes measured growth inhibition.
Please state the figure in %; there is no need to write the unit.

# compound, growth inhibition [%]
rows = [
    ("Cc1ccc(N=Nc2ccc(C)cc2NC(=O)Nc2cc([N+](=O)[O-])ccc2F)cc1", -4.3),
    ("CC(=O)OC1=C(OC(C)=O)N(S(=O)(=O)c2ccc(C)cc2)CCc2ccccc21", 6.5),
    ("COC1OC(CO)C(O)C(O)C1Br (configuration not stated)", 23.8),
]

Given the compound Cc1ccc(S(=O)(=O)NN=C2CCS(=O)CC2)cc1 (configuration not stated) , write its reported growth inhibition. -10.5

// Input: `CC(C)OC(=O)Oc1ccc(Cl)cc1Cl` . Output its growth inhibition only. -9.95

In one line, give reported growth inhibition of the entry NC(=O)c1cn(C2OC(CO)C(O)C2O)c(=O)[nH]c1=O (configuration not stated) . -12.7

Kindly indicate its recorded growth inhibition. Item: CCC(=O)C(CCN(C)C)c1ccccc1 (configuration not stated) -11.1

Supply growth inhibition value. Item: COc1ccc(OC)c(C2SCC(=O)N2c2nncs2)c1 (configuration not stated) -8.7

Recall and state the measured growth inhibition for `O=C(/C=C/c1ccc(O)cc1)NCCc1c[nH]c2ccc(O)cc12` . -3.7

Supply growth inhibition value. Item: `O=C(O)CN(CC(=O)O)CC(=O)O` -17.1

Supply growth inhibition value. Item: `CCN(CC)CC#CCCCN(CC)CC` -44.5

---

assay: NCI Yeast Anticancer Drug Screen. Data for the sgs1 mgt1 strain (AID 161);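 also: 0% = growth of cultures given vehicle only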; details: S. cerevisiae sgs1 mgt1 strain, at 50.0 µM, hits give high values
The panel holds about 79,000 compounds, 15% with a hit somewhere; the sample as a whole holds those more often.
measurementLabel: growth inhibition (%)
Report the figure in % without appending any unit label.

Record excerpt, results attached:
# molecule, unitsText, growth inhibition
rows = [
    ("O=C1c2[nH]c3ccccc3c2CN1CCc1ccccc1", "%", 4.7),
    ("COc1ccc(C(=O)/C=C/C(C)=C/C=N/N(C)c2ccccc2)cc1", "%", -0.5),
    ("NC(CC1C=CC=CC1)C(=O)O (stereo not given)", "%", 8.35),
    ("COC(=O)Nc1cccc(-c2nc3ccc(NC(=O)OC)cc3c(=O)n2-c2ccccc2)c1", "%", -22.6),
    ("CC(=O)Oc1ccc2c(c1)oc1c3ccc(OC(C)=O)cc3n(C)c(=O)c21", "%", -16),
    ("Cc1cc(N(CCC#N)CCC#N)ccc1/C=C\\C(=O)Nc1ccccc1", "%", -10.8),
]

# return recorded growth inhibition for entry `Cc1nc2ccccc2s1` 7.9

Supply reported growth inhibition belonging to this molecule: `NCCCc1ccc2oc3ccccc3c2c1` 13.9

Supply measured growth inhibition of `CCOC(=O)CS(=O)(=O)CS(=O)(=O)CC(=O)OCC` in your reply. 7.85

Fill in reported growth inhibition for this entry: `COc1ccc(C(C)=O)cc1C=O` -2.65

# return recorded growth inhibition for entry COc1cc2c(c(OC)c1OC)-c1ccc(OC)c(=O)cc1C(NC(=O)c1ccc(N=[N+]=[N-])cc1)CC2 (stereo not given) 8.5

Provide only the value of recorded growth inhibition for O=C1CCCC2=C1C(c1ccccc1)/C(=N/O)O2 (stereo not given) -4.45

Return growth inhibition for the following molecule: `CC(=O)N(C)N=Nc1ccc(C(F)(F)F)cc1` -9

Given COc1ccc(C(CC(=O)O)c2ccc(OC)cc2OC)cc1 (stereo not given) , respond with its growth inhibition. 11.8

Supply growth inhibition value. Item: `O=C1CCCC2=C1CC1=C(CCCC1=O)N2c1ccc([N+](=O)[O-])cc1` -42

Return the recorded growth inhibition value; entry: O=C(O)C1(C(=O)O)CC2C3C=CC(C3)C2C1 (stereo not given) 0.35

Please give measured growth inhibition of the following entry: `NC(=O)N/N=C1\CCCCC12CCCCC2` -4.9

Give reported growth inhibition value for `O=C(Nc1ccc(Cl)c(Cl)c1)Oc1ccc(-c2ccccc2)cc1` 93.2

Give the reported value of growth inhibition for this record: `c1ccc(Nc2nnc(-c3nsc4ccccc34)o2)cc1` -42.8

Tell me growth inhibition reported for `C(=N\N=C\c1ccccn1)/c1ccccn1` 5.5

Name the recorded growth inhibition of the item `COc1cc(/C=C(\C#N)C(N)=C(C#N)C#N)cc(O)c1O` in your answer. -19.6

Consider the molecule CSCCC(C(=O)O)N(C)C (stereo not given) . State its measured growth inhibition. -17.3

Quick one: give measured growth inhibition for Cc1ccc(SCc2cn(C3OC(CO)C(O)C3O)c(=O)[nH]c2=O)cc1 (stereo not given) 12.9

Query growth inhibition for O=C1NC2(c3ccccc3)CCCCC2O1 (stereo not given) -5.95

Specify measured growth inhibition for COC(=O)CCC(C)C1CCC2C3CCC4CC5CCC4(C)C3(O5)C(Br)C(Br)C12C (stereo not given) . -32.5
